Data provenance: paper PMC8007132

testSystem: FGF-23-mediated activation of FGFR1/α-KL complex (Homo sapiens)
Sequence (Q9GZV9 25-251): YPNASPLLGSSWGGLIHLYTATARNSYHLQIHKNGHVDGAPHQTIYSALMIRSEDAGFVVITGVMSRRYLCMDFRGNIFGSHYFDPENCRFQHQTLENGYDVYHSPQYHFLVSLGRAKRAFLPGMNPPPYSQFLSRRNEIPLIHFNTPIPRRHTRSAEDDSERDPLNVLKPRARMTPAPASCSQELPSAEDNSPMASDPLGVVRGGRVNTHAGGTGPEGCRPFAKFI
Type: cell-based
conditionNotes: compared to 1 (IC50 5.0 μM)
Hi there, I'd appreciate the recorded fold higher potency for inhibiting FGF-23 activity compared to 1 for every entry that follows.

### Prompt # return fold higher potency for inhibiting FGF-23 activity compared to 1 for Cc1ccc(/C=C/c2ncccc2/C=N/O)cc1 [Compound 14b] , test system: FGF-23-mediated activation of FGFR1/α-KL complex (Homo sapiens)
### Response 10 ~ 36 fold

### Prompt # return fold higher potency for inhibiting FGF-23 activity compared to 1 for `Cc1ccc(/C=C/C2=C(/C=N/O)CCC2)cc1` , test system: FGF-23-mediated activation of FGFR1/α-KL complex (Homo sapiens)
### Response 10 ~ 25 fold

### Prompt # return fold higher potency for inhibiting FGF-23 activity compared to 1 for `Cc1ccc(/C=C/C2=C(/C=N/O)CCCC2)cc1` , test system: FGF-23-mediated activation of FGFR1/α-KL complex (Homo sapiens)
### Response 10 ~ 36 fold

### Prompt # return fold higher potency for inhibiting FGF-23 activity compared to 1 for `O/N=C/C1=C(/C=C/c2ccc(F)cc2)CCC1` , test system: FGF-23-mediated activation of FGFR1/α-KL complex (Homo sapiens)
### Response 10 ~ 25 fold

### Prompt # return fold higher potency for inhibiting FGF-23 activity compared to 1 for Cc1ccc(/C=C/c2ccccc2/C=N/O)cc1 [Compound 13a, 2-(2-p-Tolyl-vinyl)-benzaldehyde oxime] , test system: FGF-23-mediated activation of FGFR1/α-KL complex (Homo sapiens)
### Response 10 ~ 36 fold
